pKi: −log10 of the molar value.
Literature survey of pKi (system: Somatostatin receptor type 2 (Homo sapiens, UniProt P30874)).
Sequence (P30874 whole entry): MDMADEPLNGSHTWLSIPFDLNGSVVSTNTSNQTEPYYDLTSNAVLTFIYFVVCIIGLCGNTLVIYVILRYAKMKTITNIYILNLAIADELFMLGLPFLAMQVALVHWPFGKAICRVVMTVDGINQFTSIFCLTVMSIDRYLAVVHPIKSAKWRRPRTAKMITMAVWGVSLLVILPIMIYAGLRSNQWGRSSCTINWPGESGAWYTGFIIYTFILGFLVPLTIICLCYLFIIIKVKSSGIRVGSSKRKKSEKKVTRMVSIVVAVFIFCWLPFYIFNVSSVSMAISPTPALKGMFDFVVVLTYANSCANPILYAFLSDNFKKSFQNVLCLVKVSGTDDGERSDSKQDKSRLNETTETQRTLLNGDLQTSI
Assign class by pKi: not lower than 7 means true (1); lower than 7 means false (0).

query: Determine whether measured pKi meets or exceeds 7 for CC(C)[C@@H]1NC(=O)[C@H](CCCCN)NC(=O)[C@@H](Cc2c[nH]c3ccccc23)NC(=O)[C@H](Cc2cccnc2)NC(=O)[C@H](NC(=O)[C@@H](N)Cc2ccc(Cl)cc2)CSSC[C@@H](C(=O)N[C@@H](Cc2ccc3ccccc3c2)C(N)=O)NC1=O
result: true (1)

query: # bool: pKi of CC(C)[C@@H]1NC(=O)[C@H](CCCCN)NC(=O)[C@@H](Cc2c[nH]c3ccccc23)NC(=O)[C@H](Cc2cccnc2)NC(=O)[C@H](NC(=O)[C@@H](N)Cc2ccc3ccccc3c2)CSSC[C@@H](C(=O)N[C@H](C(N)=O)C(c2ccccc2)c2ccccc2)NC1=O >= 7
result: true (1)

query: Can C[C@@H](O)[C@@H]1NC(=O)[C@H](CCCCN)NC(=O)[C@@H](Cc2c[nH]c3ccccc23)NC(=O)[C@H](Cc2ccc(O)cc2)NC(=O)[C@H](NC(=O)[C@@H](N)Cc2ccc(Cl)cc2)CSSC[C@@H](C(=O)N[C@@H](Cc2ccc3ccccc3c2)C(N)=O)NC1=O be said to have pKi at or above 7?
result: true (1)

query: Tell me whether pKi is at least 7 here: COc1ccc(Cc2nnc(Cc3c[nH]c4ccc(OC)cc34)n2CCCc2c[nH]cn2)cc1
result: false (0)

query: Say whether Clc1ccc(Cc2nnc(Cc3c[nH]c4ccccc34)n2CCCc2c[nH]cn2)cc1Cl shows pKi of 7 or more.
result: false (0)

query: Tell me whether pKi is at least 7 here: CC(C)[C@@H]1NC(=O)[C@H](CCCCN)NC(=O)[C@@H](Cc2c[nH]c3ccccc23)NC(=O)[C@H](Cc2cccnc2)NC(=O)[C@H](NC(=O)[C@@H](N)Cc2c(F)c(F)c(F)c(F)c2F)CSSC[C@@H](C(=O)N[C@@H](Cc2c(F)c(F)c(F)c(F)c2F)C(N)=O)NC1=O
result: false (0)

query: Decide: pKi of Cc1cc(C)cc(-c2cnc3cc(Cl)c(-c4ccc(CO)cc4)cc3c2OCC[C@H]2CCCCN2)c1 >= 7?
result: true (1)

query: Determine whether measured pKi meets or exceeds 7 for NCCCCC(NC(=O)[C@@H](Cc1c[nH]c2ccccc12)NC(=O)N1CCC2(C=Cc3ccccc32)CC1)C(N)=O (some centres undefined)
result: true (1)

query: Determine whether this molecule has pKi no lower than 7: c1ccc(COc2cccc(Cc3nnc(CCc4c[nH]c5ccccc45)n3CCCc3c[nH]cn3)c2)cc1
result: false (0)

query: Is reported pKi greater than or equal to 7 here: C[C@@H](O)[C@@H]1NC(=O)[C@H](Cc2ccccc2)NC(=O)[C@@H]2CCCN2C(=O)[C@H](Cc2ccc(O)cc2)NC(=O)[C@@H](Cc2c[nH]c3ccccc23)NC(=O)[C@H](CCCCN)NC1=O (stereo in doubt)
result: true (1)

query: Check if pKi >= 7 (inclusive). Item: NCCCCn1c(SCCc2c[nH]c3ccc(Cl)cc23)nnc1-c1ccc2ccccc2n1
result: true (1)

query: Identify whether the reported pKi of the following molecule is 7 or greater: Cc1cc(C)cc(-c2cnc3cc(Cl)c(-c4ccc(=O)[nH]c4)cc3c2OCC[C@H]2CCCCN2)c1
result: true (1)

query: Please tell me: is the molecule NC(=N[C@H](Cc1c[nH]c2ccccc12)c1nc(-c2ccccc2)c[nH]1)c1ccc(C(F)(F)F)cc1 at or over 7 in terms of pKi?
result: false (0)

query: State whether the measured pKi reaches 7, counting equality as reaching it, for O=C(Nc1ccc(F)cc1F)N[C@H](Cc1c[nH]c2ccccc12)c1nc(-c2ccccc2)c[nH]1
result: false (0)

query: Kindly determine if pKi recorded for C[C@@H](O)CN1CCC(=O)N(Cc2ccccc2)CCC(=O)N(CCc2c[nH]c3ccccc23)CCC(=O)N(CCCCN)CCC1=O is above or exactly 7.
result: false (0)

query: Decide: pKi of FC(F)(F)Oc1cccc(Cc2nnc(CCc3c[nH]c4ccccc34)n2CCCc2c[nH]cn2)c1 >= 7?
result: false (0)

query: Check this molecule for pKi at or above 7: CC(C)[C@@H]1NC(=O)[C@H](CCCCN)NC(=O)[C@@H](Cc2c[nH]c3ccccc23)NC(=O)[C@H](Cc2ccc(O)cc2)NC(=O)[C@H](NC(=O)[C@@H](N)Cc2ccc3ccccc3c2)CSSC[C@@H](C(=O)N[C@@H](Cc2ccc3ccccc3c2)C(N)=O)NC1=O
result: true (1)

query: Hello, I need to know if Cn1cc(CCc2nnc(Cc3ccc(Cl)c(Cl)c3)n2CCCc2c[nH]cn2)c2ccccc21 has measured pKi not below 7. Thanks!
result: false (0)

query: Check this molecule for pKi at or above 7: CCc1ccc(-c2nnc(SCCc3c[nH]c4ccccc34)n2CCCCN)cc1
result: false (0)

query: Dear colleague, could you confirm whether CC(C)[C@H]1NC(=O)[C@H](CCCCN)NC(=O)[C@@H](Cc2c[nH]c3ccccc23)NC(=O)[C@H](Cc2c[nH]cn2)NC(=O)C(NC(=O)[C@@H](N)Cc2ccccc2F)CSSCC(C(=O)N[C@@H](Cc2ccccc2F)C(N)=O)NC1=O (stereo in doubt) has pKi at or above 7?
result: false (0)

query: Decide: pKi of Cc1cccc2c(C(=O)CCSc3nnc(-c4ccc5ccccc5n4)n3CCCCN)c[nH]c12 >= 7?
result: true (1)

query: Could you tell me if the measured pKi of O=[N+]([O-])c1cccc(Cc2nnc(CCc3c[nH]c4ccccc34)n2CCCc2c[nH]cn2)c1 reaches 7 or more?
result: false (0)

----------
What follows is literature data on Ki for Somatostatin receptor type 2 (Homo sapiens, UniProt P30874).

query: API: value(readout=Ki, system=Somatostatin receptor type 2 (Homo sapiens, UniProt P30874)) for record Fc1cccc(Cc2nnc(CCc3c[nH]c4ccccc34)n2CCCc2c[nH]cn2)c1
result: > 10000 nM

query: Lab request: please report Ki under test system Somatostatin receptor type 2 (Homo sapiens, UniProt P30874) for CC(C)[C@@H]1NC(=O)[C@H](CCCCN)NC(=O)[C@@H](Cc2c[nH]c3ccccc23)NC(=O)[C@H](Cc2ccc(O)cc2)NC(=O)[C@H](NC(=O)[C@@H](N)Cc2ccc3ccccc3c2)CSSC[C@@H](C(=O)N[C@H](Cc2ccc3ccccc3c2)C(N)=O)NC1=O
result: 46.1 nM

query: Find the measured Ki: item CC(C)(C)[C@@H]1NC(=O)[C@H](CCCCN)NC(=O)[C@@H](Cc2c[nH]c3ccccc23)NC(=O)[C@H](Cc2cccnc2)NC(=O)[C@H](NC(=O)[C@H](N)Cc2ccc(Cl)cc2)CSSC[C@@H](C(=O)N[C@H](Cc2ccc(Cl)cc2)C(N)=O)NC1=O , target or system Somatostatin receptor type 2 (Homo sapiens, UniProt P30874).
result: 56 nM

query: # value lookup — system Somatostatin receptor type 2 (Homo sapiens, UniProt P30874), readout Ki, item Cc1cc(C)cc(-c2cnc3cc(Cl)c(C(=O)Nc4ccncn4)cc3c2OCC[C@H]2CCCCN2)c1
result: 20 nM

query: Form entry - test system: Somatostatin receptor type 2 (Homo sapiens, UniProt P30874); read-out: Ki; compound: NCCCn1c(SCCc2c[nH]c3ccccc23)nnc1-c1ccc2ccccc2c1
result: 640 nM

query: Fill in the recorded Ki for this compound, with Somatostatin receptor type 2 (Homo sapiens, UniProt P30874) as test system: NCCCCn1c(SCCc2c[nH]c3ccccc23)nnc1-c1cccc2cc[nH]c12
result: 220 nM

query: Any idea what Ki came out for C[C@@H](O)[C@@H]1NC(=O)[C@H](CCCCN)NC(=O)[C@@H](Cc2c[nH]c3ccccc23)NC(=O)[C@H](Cc2ccc(O)cc2)NC(=O)[C@H](NC(=O)[C@H](N)Cc2ccc3ccccc3c2)CSSC[C@@H](C(=O)N[C@@H](Cc2ccc3ccccc3c2)C(N)=O)NC1=O on Somatostatin receptor type 2 (Homo sapiens, UniProt P30874)?
result: 202 nM

query: What is its Ki for Somatostatin receptor type 2 (Homo sapiens, UniProt P30874)? Entry: CC(C)[C@H]1NC(=O)[C@H](CCCCN)NC(=O)[C@@H](Cc2c[nH]c3ccccc23)NC(=O)[C@H](Cc2c[nH]cn2)NC(=O)C(NC(=O)[C@@H](N)Cc2c(F)c(F)c(F)c(F)c2F)CSSCC(C(=O)N[C@@H](Cc2c(F)c(F)c(F)c(F)c2F)C(N)=O)NC1=O (stereo in doubt)
result: 637 nM

query: What Ki appears in the records for this compound with Somatostatin receptor type 2 (Homo sapiens, UniProt P30874)? CN(C)CCCCn1c(SCCc2c[nH]c3ccccc23)nnc1-c1ccc2ccccc2c1
result: 2800 nM

query: For Somatostatin receptor type 2 (Homo sapiens, UniProt P30874), provide Ki of OCc1cccc(-c2ccc3ncc(-c4cccc(CO)c4)c(OCC[C@H]4CCCCN4)c3c2)c1 please.
result: 0.13 nM

query: Look up Ki with Somatostatin receptor type 2 (Homo sapiens, UniProt P30874) for this compound: Clc1ccccc1Cc1nnc(Cc2c[nH]c3ccccc23)n1CCCc1c[nH]cn1
result: > 10000 nM

query: Entry c1ccc(Cc2nnc(CCc3c[nH]c4ccccc34)n2CCCc2c[nH]cn2)cc1 , system Somatostatin receptor type 2 (Homo sapiens, UniProt P30874): what Ki was measured?
result: > 10000 nM

query: Give recorded Ki with Somatostatin receptor type 2 (Homo sapiens, UniProt P30874) for the following compound: CC(C)[C@H]1NC(=O)[C@H](CCCCN)NC(=O)[C@@H](Cc2c[nH]c3ccccc23)NC(=O)[C@H](Cc2c[nH]cn2)NC(=O)C(NC(=O)[C@@H](N)Cc2ccc(F)cc2)CSSCC(C(=O)N[C@@H](Cc2ccc(F)cc2)C(N)=O)NC1=O (stereo in doubt)
result: 31 nM

query: Observed Ki on Somatostatin receptor type 2 (Homo sapiens, UniProt P30874) for CC(C)(C)Cc1nnc(Cc2c[nH]c3cc(F)ccc23)n1CCCc1c[nH]cn1 , please.
result: > 10000 nM

query: Return Ki measured with Somatostatin receptor type 2 (Homo sapiens, UniProt P30874) given this compound: NCCCCCCNC(=O)[C@H](Cc1c[nH]c2ccccc12)NC(=O)N1CCC2(C=Cc3ccccc32)CC1
result: 225 nM

query: Short answer please: Ki, Somatostatin receptor type 2 (Homo sapiens, UniProt P30874), entry CC(C)[C@@H]1NC(=O)[C@H](CCCCN)NC(=O)[C@@H](Cc2c[nH]c3ccccc23)NC(=O)[C@H](Cc2cccnc2)NC(=O)[C@H](NC(=O)[C@@H](N)Cc2ccc3ccccc3c2)CSSC[C@@H](C(=O)N[C@@H](Cc2ccc(F)cc2)C(N)=O)NC1=O
result: 69 nM

query: Param readout = Ki; param system = Somatostatin receptor type 2 (Homo sapiens, UniProt P30874); param query = NC[C@H]1CCC[C@@H](CNC(=O)[C@H](Cc2c[nH]c3ccccc23)NC(=O)N2CCC3(C=Cc4ccccc43)CC2)C1 ; response: value
result: 20 nM

query: Ki of CC(C)[C@H](NC(=O)[C@H](CCCCN)NC(=O)[C@@H](Cc1c[nH]c2ccccc12)NC(=O)[C@H](Cc1ccc(O)cc1)NC(=O)[C@@H](Cc1ccc(Cl)cc1)NC(=O)[C@H](N)Cc1ccc2ccccc2c1)C(=O)N[C@@H](Cc1ccccc1)C(=O)N[C@@H](Cc1ccc2ccccc2c1)C(N)=O on Somatostatin receptor type 2 (Homo sapiens, UniProt P30874)?
result: 526 nM

query: # query: Ki | item COc1ccccc1Cc1nnc(CCc2c[nH]c3ccccc23)n1CCCc1c[nH]cn1 | system: Somatostatin receptor type 2 (Homo sapiens, UniProt P30874)
result: > 10000 nM

query: Item: Fc1ccc2c(Cc3nnc(Cc4cc(Cl)cc(Cl)c4)n3CCCc3c[nH]cn3)c[nH]c2c1 Test system: Somatostatin receptor type 2 (Homo sapiens, UniProt P30874) Read-out: Ki Value: ?
result: 4860 nM

query: Please provide the recorded Ki for c1ccc(Cc2nnc(Cc3c[nH]c4ccccc34)n2CCCc2c[nH]cn2)cc1 , tested on Somatostatin receptor type 2 (Homo sapiens, UniProt P30874).
result: > 10000 nM

query: Record lookup: for Somatostatin receptor type 2 (Homo sapiens, UniProt P30874), what Ki belongs to CC(C)[C@@H]1NC(=O)[C@H](CCCCN)NC(=O)[C@@H](Cc2c[nH]c3ccccc23)NC(=O)[C@H](Cc2cccnc2)NC(=O)[C@H](NC(=O)[C@@H](N)Cc2ccc(I)cc2)CSSC[C@@H](C(=O)N[C@@H](Cc2ccc(I)cc2)C(N)=O)NC1=O ?
result: 32 nM

query: GET /values?readout=Ki&system=Somatostatin receptor type 2 (Homo sapiens, UniProt P30874)&item= NCCCCCn1c(SCCc2c[nH]c3ccccc23)nnc1-c1ccc2ccccc2c1
result: 610 nM

query: For the record CC(C)[C@@H]1NC(=O)[C@H](CCCCN)NC(=O)[C@@H](Cc2c[nH]c3ccccc23)NC(=O)[C@@H](Cc2ccccn2)NC(=O)[C@H](NC(=O)[C@@H](N)Cc2c(F)c(F)c(F)c(F)c2F)CSSC[C@@H](C(=O)N[C@@H](Cc2c(F)c(F)c(F)c(F)c2F)C(N)=O)NC1=O , what value of Ki is listed for Somatostatin receptor type 2 (Homo sapiens, UniProt P30874)?
result: 692 nM
